The reported measurements were obtained from patent US12398119B2.

- test.target: Human M4 mAChR (Homo sapiens, UniProt P08173)
- Construct: host or cells: HEK293 (Sor-L9 HEK293 human/M4/GloSensor Cell Clone Number 40)
- Sequence (P08173 1-479): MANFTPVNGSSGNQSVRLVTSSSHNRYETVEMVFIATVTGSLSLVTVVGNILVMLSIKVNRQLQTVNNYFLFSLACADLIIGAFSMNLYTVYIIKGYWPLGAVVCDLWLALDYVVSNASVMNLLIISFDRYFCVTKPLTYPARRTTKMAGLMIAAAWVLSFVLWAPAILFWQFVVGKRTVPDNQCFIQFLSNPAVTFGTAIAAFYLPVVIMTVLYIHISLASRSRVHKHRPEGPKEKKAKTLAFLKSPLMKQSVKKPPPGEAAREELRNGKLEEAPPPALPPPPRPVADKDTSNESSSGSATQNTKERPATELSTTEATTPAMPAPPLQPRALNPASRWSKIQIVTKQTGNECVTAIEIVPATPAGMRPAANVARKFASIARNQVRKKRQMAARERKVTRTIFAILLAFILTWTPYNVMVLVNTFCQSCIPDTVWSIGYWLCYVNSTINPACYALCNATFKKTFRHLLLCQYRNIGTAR
- protocol.summary: Muscarinic hM4 Agonist GloSensor cAMP Assay
- Assay type: cell-based
- condition.description: HEK293 human/M4/GloSensor cells, EC80 isoproterenol; geometric mean, number of determinations in parentheses; read-out: EC50
pEC50: −log10 of the molar value.
quantity.kind: pEC50

Sample answers from the record:
>>> reading("CCOC(=O)N1CC2(CC[C@@H](N3CCN(c4nccnc4-c4cncs4)CC3)C2)C1")
9.09
>>> reading("CCOC(=O)N1CC2(CCC(N3CCN(c4cccnc4OC4COC4)CC3)C2)C1 (centres unmarked)")
8.27
>>> reading("CCOC(=O)N1CC2(CCC(N3CCN(c4ncccc4-c4cnc(OC)cn4)CC3)C2)C1 (centres unmarked) [Example 1]")
8.34
>>> reading("CCOC(=O)N1CC2(CCC(N3CCN(c4ncccc4-c4sc(C)nc4C)CC3)C2)C1 (centres unmarked)")
8.11
>>> reading("CCOC(=O)N1CC2(CC[C@@H](N3CCN(c4ncccc4-n4cc(C)cn4)CC3)C2)C1")
7.83

a. CCOC(=O)N1CC2(CC(N3CCN(c4ncccc4-c4sncc4C)CC3)C2)C1
b. CCOC(=O)N1CC2(CCC(N3CCN(c4ncccc4-c4cnc(C#N)cn4)CC3)C2)C1 (single isomer, unassigned)
c. CCOC(=O)N1CC2(CCC(N3CCN(c4ncccc4-c4ccnnc4)CC3)C2)C1 (centres unmarked)
Provide the items ranked by increasing pEC50. As an answer, provide the labels arranged in the order called for.
a, b, c

---

- test.target: Human M4 mAChR (Homo sapiens)
- Construct: host or cells: HEK293 (Sor-L9 HEK293 human/M4/GloSensor Cell Clone Number 40)
- protocol.summary: Muscarinic hM4 Agonist GloSensor cAMP Assay
- Format: cell-based
- condition.description: enantiomers reported in footnotes to Table 1; number of determinations in parentheses; read-out: M4 EC50
- Protocol: Muscarinic hM4 Agonist GloSensor cAMP Assay Methods Compounds were prepared in advance of the assay. Test compounds were solubilized in 100% dimethyl sulfoxide (DMSO, Sigma D8418) to a concentration of 30 mM. […] The raw data, expressed as relative light units, was analyzed using Activity Base (IDBS). The percent effect at each compound concentration was calculated based on and relative to the amount of cAMP produced by the positive and negative control wells contained on each assay plate. […]
quantity.kind: EC50 (nM)

>>> reading("CCOC(=O)N1CC2(CCC(N3CCN(c4cccnc4OC(F)F)CC3)C2)C1 (single isomer, unassigned) [enantiomer of Example 19]")
201

1. CCOC(=O)N1CC2(CCC(N3CCN(c4cccnc4OC(F)(F)F)CC3)C2)C1 (single isomer, unassigned) [enantiomer of Example 20]
2. CCOC(=O)N1CC2(CCC(N3CCN(c4ncccc4-c4cnc(C#N)cn4)CC3)C2)C1 (single isomer, unassigned) [enantiomer of Example 41]
3. CCOC(=O)N1CC2(CCC(N3CCN(c4ncccc4C4CC4)CC3)C2)C1 (single isomer, unassigned) [enantiomer of Example 22]
4. CCOC(=O)N1CC2(CCC(N3CCN(c4ncc(F)cc4-c4cscn4)CC3)C2)C1 (single isomer, unassigned) [enantiomer of Example 26]
Provide the items ranked by increasing EC50. As an answer, provide the labels arranged in the order called for.
3, 4, 2, 1
(3: 11.6 nM, 4: 152 nM, 2: 268 nM, 1: 3600 nM)

---

- test.target: Human M4 mAChR (Homo sapiens, UniProt P08173)
- Construct: host or cells: HEK293 (Sor-L9 HEK293 human/M4/GloSensor Cell Clone Number 40)
- protocol.summary: Muscarinic hM4 Agonist GloSensor cAMP Assay
- Assay type: cell-based
- condition.description: HEK293 human/M4/GloSensor cells, EC80 isoproterenol; geometric mean, number of determinations in parentheses; read-out: EC50
pEC50: −log10 of the molar value.
quantity.kind: pEC50

>>> reading("CCOC(=O)N1CC2(CC[C@@H](N3CCN(c4ncccc4OC)CC3)C2)C1")
8.80

1. CCOC(=O)N1CCC2(CC(N3CCN(c4ncccc4-c4cnn(C)c4)CC3)C2)C1 (stereo not shown)
2. CCOC(=O)N1CC2(CCC(N3CCN(c4nccnc4OC)CC3)C2)C1 (single isomer, unassigned)
3. CCOC(=O)N1CC2(CCC(N3CCN(c4ncc(F)cc4-c4cscn4)CC3)C2)C1 (single isomer, unassigned)
4. CCOC(=O)N1CC2(CCC(N3CCN(c4ncccc4-c4cnsn4)CC3)C2)C1 (single isomer, unassigned) [Example 34]
5. CCOC(=O)N1CC2(CC[C@@H](N3CCN(c4ncccc4-c4cnn(CCCCC#N)c4)CC3)C2)C1
List these items ordered by pEC50, big to small. As an answer, provide the labels arranged in the order called for.
5, 4, 1, 2, 3

a. CCOC(=O)N1CC2(CCC(N3CCN(c4cccnc4OC(F)(F)F)CC3)C2)C1 (single isomer, unassigned)
b. CCOC(=O)N1CC2(CCC(N3CCN(c4ncccc4-c4ccc(OC)nc4)CC3)C2)C1 (stereo not shown)
Of a versus b , which is the one with smaller reported pEC50? Write the label of whichever entry you select.
a
(a: 8.00, b: 8.93)

P. CCOC(=O)N1CC2(CC[C@@H](N3CCN(c4nccnc4N4CCC(OC)CC4)CC3)C2)C1
Q. CCOC(=O)N1CC2(CCC(N3CCN(c4ncccc4-c4cncc(OC(F)F)c4)CC3)C2)C1 (stereo not shown)
R. CCOC(=O)N1CCC2(CC(N3CCN(c4ncccc4OC)CC3)C2)C1 (stereo not shown)
Provide the items ranked by increasing pEC50. As an answer, provide the labels arranged in the order called for.
R, Q, P
(R: 7.63, Q: 8.21, P: 8.82)

P. CCOC(=O)N1CCC2(CC(N3CCN(c4ncccc4-c4cscn4)CC3)C2)C1 (stereo not shown)
Q. CCOC(=O)N1CC2(CCC(N3CCN(c4ncccc4C)CC3)C2)C1 (single isomer, unassigned)
R. CCOC(=O)N1CC2(CCC(N3CCN(c4ncccc4-c4ccc5nncn5c4)CC3)C2)C1 (stereo not shown)
S. CCOC(=O)N1CC2(CCC(N3CCN(c4ncccc4-c4cnsn4)CC3)C2)C1 (stereo not shown) [Example 33]
T. CCOC(=O)N1CC2(CC(N3CCN(c4ncccc4-c4cnccn4)CC3)C2)C1
Provide the items ranked by increasing pEC50. As an answer, provide the labels arranged in the order called for.
T, P, R, Q, S
(T: 6.52, P: 7.61, R: 7.92, Q: 8.40, S: 8.88)

---

- test.target: Human M4 mAChR (Homo sapiens)
- Construct: host or cells: HEK293 (Sor-L9 HEK293 human/M4/GloSensor Cell Clone Number 40)
- Sequence (P08173 1-479): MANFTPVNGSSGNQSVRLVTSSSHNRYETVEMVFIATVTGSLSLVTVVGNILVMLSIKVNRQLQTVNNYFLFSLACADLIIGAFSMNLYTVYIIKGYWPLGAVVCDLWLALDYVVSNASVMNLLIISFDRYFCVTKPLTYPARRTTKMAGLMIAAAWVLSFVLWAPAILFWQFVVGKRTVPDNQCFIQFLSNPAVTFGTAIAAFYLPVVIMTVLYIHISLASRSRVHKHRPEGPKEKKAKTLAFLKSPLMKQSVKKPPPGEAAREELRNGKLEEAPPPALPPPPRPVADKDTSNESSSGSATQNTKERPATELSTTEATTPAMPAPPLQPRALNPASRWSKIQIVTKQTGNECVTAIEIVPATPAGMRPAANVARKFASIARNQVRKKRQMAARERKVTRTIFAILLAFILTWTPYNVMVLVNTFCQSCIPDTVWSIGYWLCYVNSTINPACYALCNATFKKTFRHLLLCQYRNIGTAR
- protocol.summary: Muscarinic hM4 Agonist GloSensor cAMP Assay
- Format: cell-based
- condition.description: Emax: maximum asymptote of concentration response curve, relative to ACh positive control (EC100) and DMSO; geometric mean; read-out: % maximum effect
quantity.kind: Emax (%)

Sample answers from the record:
>>> reading("CCOC(=O)N1CC2(CCC(N3CCN(c4ncccc4N4CCC(F)(F)C4)CC3)C2)C1 (stereo not shown)")
84
>>> reading("CCOCCn1cc(-c2cccnc2N2CCN([C@@H]3CCC4(C3)CN(C(=O)OCC)C4)CC2)cn1")
89.4
>>> reading("CCOC(=O)N1CC2(CCC(N3CCN(c4ncccc4-c4cnc(C#N)cn4)CC3)C2)C1 (single isomer, unassigned)")
82.4
>>> reading("CCOC(=O)N1CC2(CCC(N3CCN(c4cccnc4OC4COC4)CC3)C2)C1 (stereo not shown)")
83.1
>>> reading("CCOC(=O)N1CC2(CCC(N3CCN(c4ncccc4-c4cncc(OC(F)F)c4)CC3)C2)C1 (stereo not shown)")
24.7

I. CCOC(=O)N1CC2(CC[C@@H](N3CCN(c4ncccc4-c4cnn(CCCCC#N)c4)CC3)C2)C1
II. CCOC(=O)N1CC2(CCC(N3CCN(c4ncccc4C4CC4)CC3)C2)C1 (single isomer, unassigned)
For this pair, I and II , which shows a numerically higher Emax? Write the label of whichever entry you select.
II
